System: LAMPU (purple deadnettle)
Assay: Pre-plant incorporated (PPI) herbicidal activity, cool season
Type: in vivo, Lamium purpureum
Settings: weed, PPI application, 30 g/ha
Field: Percent inhibition LAMPU. Provide a value for each of the compounds that follow.
Answer format: numeric, % implied, no suffix.

Short answer for `CCN(CC)C(=O)n1cnc(S(=O)(=O)C(F)(F)SC)n1` : Percent inhibition LAMPU was 0

Short answer for `CCN(CC)C(=O)n1cnc(S(=O)(=O)C(F)(F)SCc2ccccc2)n1` : Percent inhibition LAMPU was 0

Short answer for `CCN(CC)C(=O)n1cnc(S(=O)(=O)C(F)(F)Cl)n1` : Percent inhibition LAMPU was 60

Short answer for `CCN(CC)C(=O)n1cnc(S(=O)(=O)C(F)(F)C(F)F)n1` : Percent inhibition LAMPU was 80

Short answer for `CCN(CC)C(=O)n1cnc(S(=O)(=O)C(F)(F)F)n1` : Percent inhibition LAMPU was 30

Short answer for `CCN(CC)C(=O)n1cnc(S(=O)(=O)C(F)(F)SCC(=O)OC)n1` : Percent inhibition LAMPU was 0

Short answer for `CCN(CC)C(=O)n1cnc(S(=O)(=O)C(F)(F)C(F)(F)Br)n1` : Percent inhibition LAMPU was 40

Short answer for `C=C(CC(F)(F)S(=O)(=O)c1ncn(C(=O)N(CC)CC)n1)C[Si](C)(C)C` : Percent inhibition LAMPU was 60
